# system name: FXR ligand binding domain (Homo sapiens (Human), UniProt Q96RI1)
# Sequence (Q96RI1 other isoform, or with tags, fused parts or gaps): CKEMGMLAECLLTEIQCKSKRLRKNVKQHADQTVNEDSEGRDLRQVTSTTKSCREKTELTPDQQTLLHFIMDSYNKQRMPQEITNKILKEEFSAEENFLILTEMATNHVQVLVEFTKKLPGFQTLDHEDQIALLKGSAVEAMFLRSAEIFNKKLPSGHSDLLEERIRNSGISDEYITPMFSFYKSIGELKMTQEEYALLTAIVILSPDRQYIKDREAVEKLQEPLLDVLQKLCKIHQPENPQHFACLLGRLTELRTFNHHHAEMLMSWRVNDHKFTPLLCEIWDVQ
# assay text: Mammalian one hybrid (M1H) Gal4 reporter gene assay in HEK293 cells
# applied conditions: Gal4-FXR-LBD luciferase reporter, 16 h incubation
# Method: Determination of a ligand mediated Gal4 promoter driven transactivation to quantify ligand binding mediated activation of FXR was performed as follows: The cDNA part encoding the FXR ligand binding domain was cloned into vector pCMV-BD (Stratagene) as a fusion to the yeast GAL4 DNA binding domain under the control of the CMV promoter. The amino acid boundaries of the ligand binding domain were amino acids 187-472 of Database entry NM_005123 (RefSeq). […]
pEC50: −log10 of the molar value.
Reported pEC50 values for the following molecules.

molecule	system name	pEC50
O=C(O)c1cc(F)c2nc(C3(O)C4COCC3CC(OCc3c(-c5c(Cl)cccc5Cl)noc3C3CC3)C4)sc2c1 (centres unmarked) [Example 1]	FXR ligand binding domain (Homo sapiens (Human), UniProt Q96RI1)	6.67
O=C(O)c1ccc2nc(C3(O)C4COCC3CC(OCc3c(-c5c(Cl)cccc5Cl)noc3C3CC3)C4)sc2c1 (centres unmarked) [Example 2]	FXR ligand binding domain (Homo sapiens (Human), UniProt Q96RI1)	6.76
